- Test system: L1210 leukemia ip in BDF1 mice, survival T/C
- protocol summary: NCI In Vivo Anticancer Drug Screen. Data for tumor model L1210 Leukemia (intraperitoneal) in B6D2F1 (BDF1) mice
- condition label: endpoint: mean survival time; dose: 400.0 mg/kg/injection; schedule: Q01DX009 (ip); vehicle: saline
Inconclusive results and toxic doses are left out. Cut-off read from the data, not from the text of the source: active = T/C of 150% or more; inactive = T/C below 125%.
Outcome codes: active, inactive

{"columns": ["molecule", "assigned category"],
 "data": [
  ["Cc1cccc(C)c1-c1c2ccccc2cc2ccccc12", "inactive"],
  ["Nc1nc(N)c2nc3c(nc2n1)C(=O)N(c1ccc(C(=O)NC(CCC(=O)O)C(=O)O)cc1)C3 (configuration not stated)", "inactive"],
  ["COC(=O)C1=C(C(=O)OC)C2CCC1O2", "inactive"],
  ["N=c1ccn(C2OC(CO)C(O)C2O)c(=O)n1O (configuration not stated)", "active"],
  ["COC(=O)c1ccc(=O)n(C/C=C(\\C)CCC=C(C)C)c1", "inactive"],
  ["CCOCC(OC)OC", "inactive"],
  ["CN(CC(=O)O)Cc1ccccc1", "inactive"]
]}
